Values from patent US20190359687A1

# maps each entry to its fluorescence intensity
Target: T1, human glycophorin A in the red blood cell membrane (human, UniProt P02724 20-150)
T1 construct: whole, on cells; used for intact RBC, isolated RBC membranes and transfected cells; the assay field tells which; also called GPA; hGPA
T1 sequence (looked up): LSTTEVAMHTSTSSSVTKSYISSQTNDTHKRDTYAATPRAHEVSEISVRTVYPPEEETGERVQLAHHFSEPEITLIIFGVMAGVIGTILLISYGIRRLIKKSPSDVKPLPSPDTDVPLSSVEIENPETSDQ
Assay: FACS, RBC Hu01
// return just the number, without any unit appended

Record excerpt, results attached:
Hu6C12-17 (antibody, V domains shown, IgG format; VH.1 + Vk.1b) VH: EVQLVQSGAEVKKPGASVKVSCKASGYTFTTYTIHWVRQAPGQGLEWMGYINPSSDYTRYNPKFKDRVTMTTDTSTSTAYMELRSLRSDDTAVYYCARGTRDYWGQGTTVTVSS VL: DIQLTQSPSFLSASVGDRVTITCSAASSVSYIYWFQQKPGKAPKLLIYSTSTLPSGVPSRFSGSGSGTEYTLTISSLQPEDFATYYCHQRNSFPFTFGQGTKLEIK : 3
Hu6C12-16 (antibody, V domains shown, IgG format; VH.1g + Vk.1a) VH: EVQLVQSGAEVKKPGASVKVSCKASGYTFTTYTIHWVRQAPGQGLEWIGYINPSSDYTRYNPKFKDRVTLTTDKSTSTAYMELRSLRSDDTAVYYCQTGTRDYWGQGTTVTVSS VL: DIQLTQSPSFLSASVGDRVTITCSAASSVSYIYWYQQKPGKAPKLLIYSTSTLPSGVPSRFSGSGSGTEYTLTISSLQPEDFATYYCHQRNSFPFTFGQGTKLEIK : 895
Hu6C12-11 (antibody, V domains shown, IgG format; VH.1b + Vk.1a) VH: EVQLVQSGAEVKKPGASVKVSCKASGYTFTTYTIHWVRQAPGQGLEWMGYINPSSDYTRYNPKFKDRVTMTTDTSTSTAYMELRSLRSDDTAVYYCATGTRDYWGQGTTVTVSS VL: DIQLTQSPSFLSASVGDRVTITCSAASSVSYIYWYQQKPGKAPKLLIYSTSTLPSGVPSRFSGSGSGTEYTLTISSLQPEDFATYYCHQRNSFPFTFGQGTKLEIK : 548

Entry Hu6C12-7 (antibody, V domains shown, IgG format; VH.1g + Vk.1) VH: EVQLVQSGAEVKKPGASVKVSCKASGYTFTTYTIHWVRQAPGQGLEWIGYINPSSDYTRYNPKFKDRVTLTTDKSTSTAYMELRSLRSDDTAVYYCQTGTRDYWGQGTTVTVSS VL: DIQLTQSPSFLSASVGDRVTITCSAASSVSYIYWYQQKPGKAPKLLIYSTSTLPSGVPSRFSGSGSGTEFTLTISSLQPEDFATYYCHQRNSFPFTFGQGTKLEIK , fluorescence intensity reported as 1230

Lab note: measured fluorescence intensity of Hu6C12-20 (antibody, V domains shown, IgG format; VH.1c + Vk.1b) VH: EVQLVQSGAEVKKPGASVKVSCKASGYTFTTYTIHWVRQAPGQGLEWMGYINPSSDYTRYNPKFKDRVTMTTDTSTSTAYMELRSLRSDDTAVYYCQTGTRDYWGQGTTVTVSS VL: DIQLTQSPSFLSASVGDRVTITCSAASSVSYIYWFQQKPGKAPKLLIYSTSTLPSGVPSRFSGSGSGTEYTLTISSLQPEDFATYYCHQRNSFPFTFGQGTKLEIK was 1670
